Molecular target: T1, human PTHrP (1-34) (human)
T1 construct: Synthetic peptide (Peninsula; Peptide Research Institute), coated on ELISA plates at 1 ug/ml; added at 1 ng/ml final in the cAMP assay; also called parathyroid hormone related peptide (1-34)
Assay: ELISA, plate coated with human PTHrP (1-34)
Description: An ELISA plate for determining antigen-binding ability was prepared as follows. Each well of a 96-well ELISA plate (Maxisorp, NUNC) was coated with 100 μl of a coating buffer containing 1 μg/ml of human PTHrP (1-34) and then blocked with 200 μl of a dilution buffer. […] The solution was measured on its absorbance at 405 nm using Microplate Reader (Bio Rad).
RECORDED_ENDPOINT: binding result

binder="humanized #23-57-137-1 antibody having L-chain version \"s\" (antibody, V domains shown, Humanized H-chain version a with human Cgamma1; human lambda C-region; COS-7 expressed; also called hMBC1HcDNA/pCOS1 and hMBC1Lsλ/pCOS1) VH: QVQLVESGGGVVQPGRSLRLSCAASGFTFSSYGMSWVRQAPGKGLEWVATISSGGSYTYYPDSVKGRFTISRDNSKNTLYLQMNSLRAEDTAVYYCARQTTMTYFAYWGQGTLVTVSS VL: QLVLTQSPSASASLGASVKLTCTLSSQHSTYTIEWYQQQPEKGPKYVMDLKQDGSHSTGDGIPDRFSGSSSGAERYLTISSLQSEDEADYICGVGDTIKEQFVYVFGGGTKLTVLG" recorded_value=binds
binder="humanized #23-57-137-1 antibody having L-chain version \"t\" (antibody, V domains shown, Humanized H-chain version a with human Cgamma1; human lambda C-region; COS-7 expressed; also called hMBC1HcDNA/pCOS1 and hMBC1Ltλ/pCOS1) VH: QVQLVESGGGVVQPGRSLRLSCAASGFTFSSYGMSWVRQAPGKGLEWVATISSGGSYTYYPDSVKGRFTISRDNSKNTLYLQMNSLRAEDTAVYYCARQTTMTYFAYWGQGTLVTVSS VL: QLVLTQSPSASASLGASVKLTCTLSSQHSTYTIEWYQQQPEKGPRYVMDLKQDGSHSTGDGIPDRFSGSSSGAERYLTISSLQSEDEADYICGVGDTIKEQFVYVFGGGTKLTVLG" recorded_value=binds
